Entry source: PubChem BioAssay AID248

- Test system: L1210 leukemia ip in BDF1 mice, survival T/C
- Assay Text: NCI In Vivo Anticancer Drug Screen. Data for tumor model L1210 Leukemia (intraperitoneal) in B6D2F1 (BDF1) mice
- Condition Label: endpoint: mean survival time; dose: 200.0 mg/kg/injection; schedule: Q04DX003 (ip); vehicle: saline with Tween-80; higher = longer survival
Inconclusive results and toxic doses are left out.
Recorded Metric: T/C

>>> result("O=[N+]([O-])c1cc(Br)cc(Br)c1")
"94 % of control"

Items follow; give T/C for each.
1. CCCCN1C(=O)c2ccncc2C1=O
2. COC(=O)N1c2ccccc2C=C(NC(C)=O)C1C#N (stereo unspecified)
3. Cc1ccc(S(=O)(=O)OC[C@H]2CC=CC[C@H]2COS(=O)(=O)c2ccc(C)cc2)cc1
4. Cc1cccc(C(=O)CC(O)(C(F)(F)F)C(F)(F)F)n1
5. O=C(O)c1scc2c1CCCC2

103 % of control
95 % of control
86 % of control
86 % of control
87 % of control

----------
- Tested on: L1210 leukemia ip in BDF1 mice, survival T/C
- Assay Text: NCI In Vivo Anticancer Drug Screen. Data for tumor model L1210 Leukemia (intraperitoneal) in B6D2F1 (BDF1) mice
- Condition Label: endpoint: mean survival time; dose: 100.0 mg/kg/injection; schedule: Q01DX001 (ip); vehicle: saline
Inconclusive results and toxic doses are left out. No stated cut-off is given here; in the data, active means T/C of 150% or more; inactive means T/C below 125%.
A correct response names exactly one class from Yes = active, No = inactive

>>> classification("CCOC(=O)c1c(C)c(-c2ccccc2F)nc2ccccc12")
"No"
>>> classification("NC(=O)c1ccc[n+](CCF)c1")
"No"
>>> classification("CCCCC(CC)C(=O)CC(C)=O (configuration not stated)")
"No"

Please state the recorded outcome for this compound: CN(C)/C=N/c1nccs1
No

Please state the recorded outcome for this compound: COc1cc([C@@H]2c3cc4c(cc3[C@@H](OC3OC5COC(C)OC5C(O)C3O)[C@H]3COC(=O)[C@H]23)OCO4)cc(OC)c1O (some centres not stated)
Yes

----------
- Tested on: L1210 leukemia ip in BDF1 mice, survival T/C
- Assay Text: NCI In Vivo Anticancer Drug Screen. Data for tumor model L1210 Leukemia (intraperitoneal) in B6D2F1 (BDF1) mice
- Condition Label: endpoint: mean survival time; dose: 400.0 mg/kg/injection; schedule: Q01DX001 (ip); vehicle: Klucel (hydroxypropylcellulose) (HPC); higher = longer survival
Toxic doses and inconclusive results are not listed.
So I've got a bunch of compounds here, and I need their T/C values.

Use the examples below as a reference point.
>>> result("CC1(C)C2=CCCCC2CC/C1=N\\O (centres undefined)")
"100 % of control"
>>> result("CCOC(=O)C/C(C(=O)O)=C(\\C)c1ccc2ccccc2c1")
"95 % of control"
>>> result("NC1=NCN(c2ccc(Oc3ccc(S(=O)(=O)F)cc3)cc2)C(N)=N1")
"104 % of control"
>>> result("Nc1csc2ncccc12")
"114 % of control"
>>> result("CCOC(=O)CSC(=S)N(C)C")
"96 % of control"
>>> result("COc1ccc(CN(CCc2ccc(O)cc2)C(=O)C(F)(F)F)cc1O")
"87 % of control"
>>> result("O=C1CCC(c2ccccc2)c2ccccc21 (centres undefined)")
"100 % of control"
>>> result("COC(=N\\S(=O)(=O)c1ccccc1)/C(=N\\S(=O)(=O)c1ccccc1)OC")
"102 % of control"
>>> result("CS(=O)(=O)CCC(NC(=O)NCCCl)C(=O)O (centres undefined)")
"100 % of control"
>>> result("O=C1S/C(=C/c2ccccc2)C(=O)N1c1ccccc1")
"94 % of control"

Items follow; give T/C for each.
1. CC1C(c2ccccc2)CC(c2ccccc2)OS1(=O)=O (centres undefined)
2. N#CCNC(=O)c1ccc(I)cc1
3. Cc1cc(C)c(F)c(Br)c1N
4. CC(=O)Nc1nc(Cl)c(N)c(SCc2ccccc2)n1

1. 93 % of control
2. 106 % of control
3. 100 % of control
4. 98 % of control

----------
So I've got a bunch of molecules here, and I need their T/C values.
- Tested on: L1210 leukemia ip in BDF1 mice, survival T/C
- Assay Text: NCI In Vivo Anticancer Drug Screen. Data for tumor model L1210 Leukemia (intraperitoneal) in B6D2F1 (BDF1) mice
- Condition Label: endpoint: mean survival time; dose: 150.0 mg/kg/injection; schedule: Q01DX009 (ip); vehicle: saline; higher = longer survival
Inconclusive results and toxic doses are left out.

>>> result("O=C1NC(=O)C(F)(F)C(O)N1 (centres undefined)")
"97 % of control"
>>> result("C#CC(C)OCC(C)OC(C)=O (centres undefined)")
"115 % of control"
>>> result("CC(=O)NCc1ccc(N2C(N)=NC(N)=NC2(C)C)cc1")
"87 % of control"

Okay, next one:
Dear colleague, I am looking for the recorded T/C of the following molecule: NC(=O)c1ccccc1I
86 % of control

----------
- Test system: L1210 leukemia ip in BDF1 mice, survival T/C
- Assay Text: NCI In Vivo Anticancer Drug Screen. Data for tumor model L1210 Leukemia (intraperitoneal) in B6D2F1 (BDF1) mice
- Condition Label: endpoint: mean survival time; dose: 400.0 mg/kg/injection; schedule: Q04DX003 (ip); vehicle: acetone; higher = longer survival
Inconclusive results and toxic doses are left out.
So I've got a bunch of molecules here, and I need their T/C values.

>>> result("O=[N+]([O-])c1ccccc1C=Nc1ccccc1")
"101 % of control"
>>> result("CC(=O)CCC1CC(=O)OC1(C)C (stereo unspecified)")
"101 % of control"
>>> result("CC(=O)Oc1ccc(N2C(=O)C=CC2=O)cc1 (tested in a mixture with another compound)")
"100 % of control"
>>> result("CSc1nnnn1-c1ccccc1")
"100 % of control"
>>> result("COc1ccc(CN2CCCN(Cc3ccc(OC)cc3)C2c2ccc(OC)cc2)cc1")
"95 % of control"

Dear colleague, I am looking for the recorded T/C of the following molecule: O=C(NCCNC(=O)c1cccnc1)c1ccncc1
106 % of control

----------
- System: L1210 leukemia ip in BDF1 mice, survival T/C
- Assay Text: NCI In Vivo Anticancer Drug Screen. Data for tumor model L1210 Leukemia (intraperitoneal) in B6D2F1 (BDF1) mice
- Condition Label: endpoint: mean survival time; dose: 100.0 mg/kg/injection; schedule: Q01DX009 (ip); vehicle: saline; higher = longer survival
Toxic doses and inconclusive results are not listed.
So I've got a bunch of molecules here, and I need their T/C values.

>>> result("CC1CCCNC1C (stereo unspecified)")
"100 % of control"
>>> result("CCCN=C(N)C(N)=NCCC")
"91 % of control"
>>> result("CCOC1=CC(=O)CCC1")
"94 % of control"
>>> result("Cn1c(O)c(C=N)c(=O)n(C)c1=O")
"87 % of control"
>>> result("CC(CS(=O)(=O)O)NC(CO)(CO)CO (stereo unspecified)")
"104 % of control"
>>> result("CCc1c[n+]([O-])c(C)cc1[N+](=O)[O-]")
"108 % of control"

Items follow; give T/C for each.
1. NC(C=O)C(O)C(O)C(O)CO (stereo unspecified)
2. CC[N+]([O-])(CC)CCNc1ccc(CO)c2sc3ccccc3c(=O)c12
3. CC1CC1C(=O)Cl (stereo unspecified)
4. CCCn1c(=S)[nH]c2ccccc2c1=O

94 % of control
121 % of control
101 % of control
95 % of control

----------
- Test system: L1210 leukemia ip in BDF1 mice, survival T/C
- Assay Text: NCI In Vivo Anticancer Drug Screen. Data for tumor model L1210 Leukemia (intraperitoneal) in B6D2F1 (BDF1) mice
- Condition Label: endpoint: mean survival time; dose: 50.0 mg/kg/injection; schedule: Q04DX002 (ip); vehicle: Klucel (hydroxypropylcellulose) (HPC); higher = longer survival
Toxic doses and inconclusive results are not listed.
Recorded Metric: T/C

Use the examples below as a reference point.
>>> result("Cc1ccc(C(=O)N2C(=O)Cc3ccccc32)cc1")
"90 % of control"
>>> result("CC(=O)N1Cc2cccn2Cc2cc3c(cc21)OCO3")
"87 % of control"
>>> result("O=Cc1c(Cl)n(-c2ccccc2)c2ccccc12")
"97 % of control"
>>> result("CCCCCC(=O)NNc1ccccc1")
"104 % of control"
>>> result("COc1ccc(C2OCC(C)([N+](=O)[O-])CO2)cc1 (configuration not stated)")
"103 % of control"

Items follow; give T/C for each.
1. CN(C)C(=S)Oc1c(Cl)cc(S(=O)(=O)F)cc1Cl
2. CSc1ncnc2c1ncn2C1OC(CCC(N)=O)C(O)C1O (configuration not stated)

1: 109 % of control; 2: 98 % of control
